Taken from patent US20250026797A1.

# assayedSystem: T1, VGLVKSK(biotin) peptide (XGLVKSK(biotin), X = Val)
# T1 construct: also called Nt-Val peptide
# T1 peptide: VGLVKSK(Biotin)
# measurementDescription: BLI, biotinylated peptide on streptavidin biosensor, 10 µmol/L protein
No end group written: not given here. *: point of attachment. Biotin = O=C1N[C@H]2[C@H](CS[C@H]2CCCCC(=O)*)N1

>  <binder>
GID4 S253T variant (residues 116-300), purified with N-terminal His-tag (designed binder, not shown: N-terminal six-histidine tag and TEV protease recognition site from the pET21(+) construct) GVATSLLYSGSKFRGHQKSKGNSYDVEVVLQHVDTGNSYLCGYLKIKGLTEEYPTLTTFFEGEIISKKHPFLTRKWDADEDVDRKHWGKFLAFYQYAKSFNSDDFDYEELKNGDYVFMRWKEQFLVPDHTIKDISGATFAGFYYICFQKSAASIEGYYYHRSSEWYQSLNLTHVPEHSAPIYEFR

>  <binding result>
binds

$$$$
